Reported Rabbit TGFB1 mRNA Expression Fold by Treatment Relative to Untreated Wounded (mean ± SD) values are given for each entry in this list.
- Test system: TGF-β1 mRNA
- Test name: TGF-β1 mRNA expression by qRT-PCR in rabbit ear wound sites
- Assay type: in vivo, New Zealand White rabbits
- Recorded conditions: rabbit ear wound sites, Treated (each drug), N 5 or 6, intradermal
Please give a number only; it is taken to be in Fold.

Here's what some known entries look like.
Compound	Target entity	Endpoint result
CCN(CC)CCNC(=O)c1c(C)[nH]c(/C=C2\C(=O)Nc3ccc(F)cc32)c1C [sunitinib]	TGF-β1 mRNA	0.76
COC(=O)c1ccc2c(c1)NC(=O)/C2=C(\Nc1ccc(N(C)C(=O)CN2CCN(C)CC2)cc1)c1ccccc1 [nintedanib]	TGF-β1 mRNA	0.73
COc1cc2nccc(Oc3ccc(NC(=O)NC4CC4)c(Cl)c3)c2cc1C(N)=O [lenvatinib]	TGF-β1 mRNA	0.66

// query Rabbit TGFB1 mRNA Expression Fold by Treatment Relative to Untreated Wounded (mean ± SD) value for entry CNC(=O)c1cc(Oc2ccc(NC(=O)Nc3ccc(Cl)c(C(F)(F)F)c3)cc2)ccn1 [sorafenib] 0.87

// query Rabbit TGFB1 mRNA Expression Fold by Treatment Relative to Untreated Wounded (mean ± SD) value for entry CNC(=O)c1ccccc1Sc1ccc2c(/C=C/c3ccccn3)n[nH]c2c1 [axitinib] 0.87

// query Rabbit TGFB1 mRNA Expression Fold by Treatment Relative to Untreated Wounded (mean ± SD) value for entry COC(=O)N(C)c1c(N)nc(-c2nn(Cc3ccccc3F)c3ncccc23)nc1N [riociguat] 1.14
